Listing of recorded inhibition in vivo at 50 mg/kg by entry.
- Test system: passive cutaneous anaphylaxis (PCA)
- assay overview: Anti-passive cutaneous anaphylaxis (PCA) activity in rats (Test Example 2)
- Assay type: in vivo, Wistar strain rats
- assay conditions: Rattus norvegicus; 50 mg/kg PO, N 10; read-out: Average Inhibition Rate (%) Antiserum Dilution: × 32
- Procedure: Wistar strain rats were sensitized with ovalbumin using aluminium hydroxide gel and Bordetella Pertussis vaccine as adjuvants. […] Thirty minutes later, the animals were sacrificed by exsanguination, and the areas of blue spots (long diameter×short diameter) eliciting on the portion of the antiserum injection at the dorsal skin were measured to obtain the rate of inhibition based on the average value shown by the control animals.
measured attribute: inhibition in vivo at 50 mg/kg (%)

* O=C(Nc1ccccc1C(=O)O)C(=Cc1ccc(Cl)cc1)C(=O)Nc1ccccc1C(=O)O | 33.3
* CCOC(=O)c1ccccc1NC(=O)C(=Cc1ccccc1)C(=O)Nc1ccccc1C(=O)OCC | 72.2
* O=C(Nc1ccccc1C(=O)O)C(=Cc1ccccc1)C(=O)Nc1ccccc1C(=O)O | 39.1
* O=C(CC(=O)Nc1cc([N+](=O)[O-])ccc1C(=O)O)Nc1cc([N+](=O)[O-])ccc1C(=O)O | 13.3
* Cc1ccc(C=C(C(=O)Nc2ccccc2C(=O)O)C(=O)Nc2ccccc2C(=O)O)cc1 | 10
* COc1ccc(C=C(C(=O)Nc2cc([N+](=O)[O-])ccc2C(=O)O)C(=O)Nc2cc([N+](=O)[O-])ccc2C(=O)O)cc1OC | 22.6
* O=C(Nc1cc([N+](=O)[O-])ccc1C(=O)O)C(=Cc1ccccc1)C(=O)Nc1cc([N+](=O)[O-])ccc1C(=O)O | 9
* O=c1oc(C(=Cc2ccccc2)c2nc3ccccc3c(=O)o2)nc2ccccc12 | 38.3
